Data provenance: ChEMBL document CHEMBL1201861

System: MZ2-MEL;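 further: growth inhibition of MZ2-MEL cells read out with a cell viability assay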
Test details: cells
Format: functional, cell-based, Homo sapiens
Reported conditions: Homo sapiens, MZ2-MEL
Description: SANGER: Inhibition of human MZ2-MEL cell growth in a cell viability assay.
pIC50: −log10 of the molar value.
Observed property: pIC50

Task: Need pIC50 of CCC(=O)N1CCN(c2ccc(-n3c(=O)ccc4cnc5ccc(-c6cnc7ccccc7c6)cc5c43)cc2C(F)(F)F)CC1 [TORIN1] , thanks.
Result: 7.63

Task: Need pIC50 of Cc1cnc(-c2cnc(NCCNc3ccc(C#N)cn3)nc2-c2ccc(Cl)cc2Cl)[nH]1 [LADUVIGLUSIB] , thanks.
Result: < 5.59

Task: Need pIC50 of CO[C@H]1C[C@@H]2CC[C@@H](C)[C@@](O)(O2)C(=O)C(=O)N2CCCC[C@H]2C(=O)O[C@H]([C@H](C)C[C@@H]2CC[C@@H](O)[C@H](OC)C2)CC(=O)[C@H](C)/C=C(\C)[C@@H](O)[C@@H](OC)C(=O)[C@H](C)C[C@H](C)/C=C/C=C/C=C/1C [SIROLIMUS] , thanks.
Result: < 7.00

====

Tested on: H-EMC-SS
Test details: cells
Format: functional, cell-based
Reported conditions: Homo sapiens
Description: SANGER: Inhibition of human H-EMC-SS cell growth in a cell viability assay.
Please respond with reported IC50 for every item in the list.

Task: Need IC50 of "O=c1cc(-c2cccc3c2Sc2ccccc2S3)oc(N2CCOCC2)c1" , thanks.
Result: > 10 µM

Task: Need IC50 of "CN(C)C/C=C/C(=O)Nc1cc2c(Nc3ccc(F)c(Cl)c3)ncnc2cc1O[C@H]1CCOC1" , thanks.
Result: > 0.5 µM

Task: Need IC50 of "COc1ccc(C2=N[C@@H](c3ccc(Cl)cc3)[C@@H](c3ccc(Cl)cc3)N2C(=O)N2CCNC(=O)C2)c(OC(C)C)c1" , thanks.
Result: 6.39 µM

====

Test system: HL-60
Test details: cells
Assay type: functional, cell-based
Reported conditions: Homo sapiens
Description: SANGER: Inhibition of human HL-60 cell growth in a cell viability assay.
pIC50: −log10 of the molar value.
Please respond with reported pIC50 for every item in the list.

Task: Need pIC50 of "Cc1cc(Nc2cc(N3CCN(C)CC3)nc(Sc3ccc(NC(=O)C4CC4)cc3)n2)n[nH]1" , thanks.
Result: 5.97

Task: Need pIC50 of "CNC(=O)c1cc(Oc2ccc(NC(=O)Nc3ccc(Cl)c(C(F)(F)F)c3)cc2)ccn1" , thanks.
Result: 5.51

Task: Need pIC50 of CN(Cc1cnc2nc(N)nc(N)c2n1)c1ccc(C(=O)N[C@@H](CCC(=O)O)C(=O)O)cc1 [METHOTREXATE] , thanks.
Result: 7.61

Task: Need pIC50 of "Cc1ccc(Nc2nccc(N(C)c3ccc4c(C)n(C)nc4c3)n2)cc1S(N)(=O)=O" , thanks.
Result: < 5.10

Task: Need pIC50 of COc1cc([C@@H]2c3cc4c(cc3[C@@H](O[C@@H]3O[C@@H]5CO[C@@H](C)O[C@H]5[C@H](O)[C@H]3O)[C@H]3COC(=O)[C@H]23)OCO4)cc(OC)c1O [ETOPOSIDE] , thanks.
Result: 5.64

Task: Need pIC50 of "CO[C@H]1C[C@@H]2CC[C@@H](C)[C@@](O)(O2)C(=O)C(=O)N2CCCC[C@H]2C(=O)O[C@H]([C@H](C)C[C@@H]2CC[C@@H](O)[C@H](OC)C2)CC(=O)[C@H](C)/C=C(\C)[C@@H](O)[C@@H](OC)C(=O)[C@H](C)C[C@H](C)/C=C/C=C/C=C/1C" , thanks.
Result: < 7.00

Task: Need pIC50 of "Cc1cnc(-c2cnc(NCCNc3ccc(C#N)cn3)nc2-c2ccc(Cl)cc2Cl)[nH]1" , thanks.
Result: < 5.59

Task: Need pIC50 of "O=C(NOCC1CC1)c1ccc(F)c(F)c1Nc1ccc(I)cc1Cl" , thanks.
Result: 6.39

Task: Need pIC50 of "C=CCNC1=C2C[C@@H](C)C[C@H](OC)[C@H](O)[C@@H](C)/C=C(\C)[C@H](OC(N)=O)[C@@H](OC)/C=C\C=C(/C)C(=O)NC(=CC1=O)C2=O" , thanks.
Result: < 6.00

Task: Need pIC50 of "O=C1N=C(NCc2cccs2)S/C1=C\c1ccc2ncccc2c1" , thanks.
Result: < 5.30

Task: Need pIC50 of "Cn1cc(C2=C(c3ccc(Cl)cc3Cl)C(=O)NC2=O)c2ccccc21" , thanks.
Result: < 5.00

Task: Need pIC50 of "COc1ccc(C2=N[C@@H](c3ccc(Cl)cc3)[C@@H](c3ccc(Cl)cc3)N2C(=O)N2CCNC(=O)C2)c(OC(C)C)c1" , thanks.
Result: < 5.10

Task: Need pIC50 of "CC(=O)O[C@@H]1[C@@H](OC(C)=O)[C@@H](O)[C@H](Oc2c(-c3ccc(O)cc3)oc3cc(O)cc(O)c3c2=O)O[C@H]1C" , thanks.
Result: < 5.00

Task: Need pIC50 of "COc1ccc(-c2ccc3c(N4CCOC[C@@H]4C)nc(N4CCOC[C@@H]4C)nc3n2)cc1CO" , thanks.
Result: 6.22

Task: Need pIC50 of "Cc1cc([C@@H](C)Nc2ccccc2C(=O)O)c2nc(N3CCOCC3)cc(=O)n2c1" , thanks.
Result: < 5.29

Task: Need pIC50 of "CN1CCN(CCOc2cc(OC3CCOCC3)c3c(Nc4c(Cl)ccc5c4OCO5)ncnc3c2)CC1" , thanks.
Result: < 5.70
